Each recorded value in this set is attributed to ChEMBL document CHEMBL1649268.

- Test system: Enterococcus faecium
- experimental details: Antimicrobial activity against Enterococcus faecium expressing VanB gene clinical isolates assessed as percent susceptible isolates by broth microdilution method
- Assay type: functional
value type: Activity (%)
The reply should be a number in %, with the unit left off.

The following molecules have reported results that may help.
CCCCCCCCCC(=O)N[C@@H](Cc1c[nH]c2ccccc12)C(=O)N[C@H](CC(N)=O)C(=O)N[C@@H](CC(=O)O)C(=O)N[C@@H]1C(=O)NCC(=O)N[C@@H](CCCN)C(=O)N[C@@H](CC(=O)O)C(=O)N[C@H](C)C(=O)N[C@@H](CC(=O)O)C(=O)NCC(=O)N[C@H](CO)C(=O)N[C@@H]([C@H](C)CC(=O)O)C(=O)N[C@@H](CC(=O)c2ccccc2N)C(=O)O[C@@H]1C
93.1
CN[C@H](CC(C)C)C(=O)N[C@H]1C(=O)N[C@@H](CC(N)=O)C(=O)N[C@H]2C(=O)N[C@H]3C(=O)N[C@H](C(=O)N[C@H](C(=O)O)c4cc(O)cc(O)c4-c4cc3ccc4O)[C@H](O)c3ccc(c(Cl)c3)Oc3cc2cc(c3O[C@@H]2O[C@H](CO)[C@@H](O)[C@H](O)[C@H]2O[C@H]2C[C@](C)(N)[C@H](O)[C@H](C)O2)Oc2ccc(cc2Cl)[C@H]1O [VANCOMYCIN]
0
CC1(C)S[C@@H]2[C@H](NC(=O)[C@H](N)c3ccccc3)C(=O)N2[C@H]1C(=O)O [AMPICILLIN]
3.4
CC(=O)NC[C@H]1CN(c2ccc(N3CCOCC3)c(F)c2)C(=O)O1 [LINEZOLID]
93.1

Incoming: May I ask what Activity has been recorded for CN[C@@H]1[C@H](O[C@H]2[C@H](O[C@H]3[C@H](O)[C@@H](O)[C@H](N=C(N)N)[C@@H](O)[C@@H]3N=C(N)N)O[C@@H](C)[C@]2(O)C=O)O[C@@H](CO)[C@H](O)[C@H]1O [STREPTOMYCIN] ?
Outgoing: 34.5

Incoming: May I ask what Activity has been recorded for C[C@H]1COc2c(N3CCN(C)CC3)c(F)cc3c(=O)c(C(=O)O)cn1c23.C[C@H]1COc2c(N3CCN(C)CC3)c(F)cc3c(=O)c(C(=O)O)cn1c23.O [LEVOFLOXACIN] ?
Outgoing: 0
